Entry source: patent US4443436A

Tested on: Streptococcus pyogenes C203
Assay: In vivo protection of mice experimentally infected with S. pyogenes C203
Settings: Streptococcus pyogenes, C203, sc; mice; subcutaneous; doses given 1 and 4 hours post-infection; read-out: ED50, Subcutaneous
OBSERVED PROPERTY: ED50

Ask | I would be grateful if you could share the reported ED50 for CCC1OC(=O)CC(O)C(C)C(OC2OC(C)C(O)C(N(C)C)C2O)C(CCOC)CC(C)C(=O)C=CC(C)=CC1COC1OC(C)C(O)C(OC)C1OC (stereo not drawn) [Compound 30, 20-DH-20-O-Methyldesmycosin] .
Reply | > 6.3 mg/kg

Ask | Need ED50 of CCC1OC(=O)CC(O)C(C)C(OC2OC(C)C(O)C(N(C)C)C2O)C(CC2SCCN2Cc2ccccc2)CC(C)C(=O)C=CC(C)=CC1COC1OC(C)C(O)C(OC)C1OC (stereo not drawn) [Compound 77] , thanks.
Reply | > 10 mg/kg

Ask | What value of ED50 has been reported for the following molecule? CCC1OC(=O)CC(O)C(C)C(OC2OC(C)C(O)C(N(C)C)C2O)C(CCOC(=O)c2nn(CC)c3cc4c(cc3c2=O)OCO4)CC(C)C(=O)C=CC(C)=CC1COC1OC(C)C(O)C(OC)C1OC (stereo not drawn) [Compound 27, 20-DH-20-O-Cinoxacinyldesmycosin]
Reply | < 1.5 mg/kg

----------
Provide the recorded MIC for the entries that follow.
Tested on: Staphylococcus aureus S13E
Experiment: MIC, standard agar-dilution assay, Staphylococcus aureus S13E
Format: cell-based
Conditions: Staphylococcus aureus, S13E
# unit: µg/mL | format: bare number

Ask | Can you share its MIC? I mean this compound: CCC1OC(=O)CC(O)C(C)C(OC2OC(C)C(OC3CC(C)(O)C(O)C(C)O3)C(N(C)C)C2O)C(CCSc2ccccc2)CC(C)C(=O)C=CC(C)=CC1COC1OC(C)C(O)C(OC)C1OC (stereo not drawn)
Reply | 1

Ask | // query MIC value for entry CCC1OC(=O)CC(O)C(C)C(OC2OC(C)C(O)C(N(C)C)C2O)C(CC2OCCO2)CC(C)C(=O)C=CC(C)=CC1COC1OC(C)C(O)C(OC)C1OC (stereo not drawn)
Reply | 0.5

Ask | # query: MIC of entry CCC1OC(=O)CC(O)C(C)C(OC2OC(C)C(OC3CC(C)(O)C(O)C(C)O3)C(N(C)C)C2O)C(CCOC(C(F)(F)F)C(F)(F)F)CC(C)C(=O)C=CC(C)=CC1COC1OC(C)C(O)C(OC)C1OC (stereo not drawn)
Reply | 4

Ask | Looking for the measured MIC of CCC1OC(=O)CC(O)C(C)C(OC2OC(C)C(O)C(N(C)C)C2O)C(CCO[N+](=O)[O-])CC(C)C(=O)C=CC(C)=CC1COC1OC(C)C(O)C(OC)C1OC (stereo not drawn) , can you help?
Reply | 0.25

Ask | Which MIC reading was recorded for the compound CCC1OC(=O)CC(O)C(C)C(OC2OC(C)C(O)C(N(C)C)C2O)C(CCOC(C(F)(F)F)C(F)(F)F)CC(C)C(=O)C=CC(C)=CC1COC1OC(C)C(O)C(OC)C1OC (stereo not drawn) ?
Reply | 0.5

Ask | Request the reported MIC associated with CCC1OC(=O)CC(O)C(C)C(OC2OC(C)C(O)C(N(C)C)C2O)C(CCI)CC(C)C(=O)C=CC(C)=CC1COC1OC(C)C(O)C(O)C1OC (stereo not drawn)
Reply | 0.5

----------
Task for the reader: assign each of the following molecules its reported ED50.
System: Streptococcus pyogenes C203
Experiment: In vivo protection of mice experimentally infected with S. pyogenes C203
Details: Streptococcus pyogenes, C203, sc; mice; subcutaneous; doses given 1 and 4 hours post-infection; read-out: ED50, Subcutaneous

Ask | Need ED50 of CCC1OC(=O)CC(O)C(C)C(OC2OC(C)C(OC3CC(C)(O)C(O)C(C)O3)C(N(C)C)C2O)C(CCCl)CC(C)C(=O)C=CC(C)=CC1COC1OC(C)C(O)C(OC)C1OC (centres unmarked) [Compound 7, 20-DH-DO-20-Chlorotylosin] , thanks.
Reply | > 6.3 mg/kg

Ask | Name the recorded ED50 for CCOC(=O)c1ccc(OCCC2CC(C)C(=O)C=CC(C)=CC(COC3OC(C)C(O)C(OC)C3OC)C(CC)OC(=O)CC(O)C(C)C2OC2OC(C)C(O)C(N(C)C)C2O)cc1 (centres unmarked) [Compound 38] .
Reply | > 10 mg/kg

Ask | Record request: ED50 value, item CCC1OC(=O)CC(O)C(C)C(OC2OC(C)C(OC3CC(C)(O)C(O)C(C)O3)C(N(C)C)C2O)C(CCSc2nnnn2C)CC(C)C(=O)C=CC(C)=CC1COC1OC(C)C(O)C(OC)C1OC (centres unmarked) [Compound 5]
Reply | > 6.3 mg/kg

Ask | Would you mind telling me what ED50 value was observed for CCC1OC(=O)CC(O)C(C)C(OC2OC(C)C(OC3CC(C)(O)C(O)C(C)O3)C(N(C)C)C2O)C(CCOc2ccccc2)CC(C)C(=O)C=CC(C)=CC1COC1OC(C)C(O)C(OC)C1OC (centres unmarked) [Compound 4, 20-DH-20-O-Phenyltylosin] ?
Reply | > 6.3 mg/kg

Ask | What does the record list as ED50 for CCC1OC(=O)CC(O)C(C)C(OC2OC(C)C(OC3CC(C)(O)C(O)C(C)O3)C(N(C)C)C2O)C(CCN=[N+]=[N-])CC(C)C(=O)C=CC(C)=CC1COC1OC(C)C(O)C(OC)C1OC (centres unmarked) [Compound 2, 20-DH-DO-20-Azidotylosin] ?
Reply | > 6.3 mg/kg

----------
For each entry below, report its MIC value.
Tested on: Staphylococcus aureus X400
Assay: MIC, standard agar-dilution assay, Staphylococcus aureus X400
Assay type: cell-based
Settings: Staphylococcus aureus, X400
The figure you give is taken to be in mg/L; do not add the unit.

Ask | Which MIC value is on record for CCC1OC(=O)CC(O)C(C)C(OC2OC(C)C(O)C(N(C)C)C2O)C(CCOC(=O)COc2ccccc2)CC(C)C(=O)C=CC(C)=CC1COC1OC(C)C(O)C(OC)C1OC (centres unmarked) ?
Reply | 0.5

Ask | Any idea what its MIC is? The compound is CCC1OC(=O)CC(O)C(C)C(OC2OC(C)C(OC3CC(C)(O)C(O)C(C)O3)C(N(C)C)C2O)C(CCI)CC(C)C(=O)C=CC(C)=CC1COC1OC(C)C(O)C(O)C1OC (centres unmarked)
Reply | 8

Ask | I am curious: what MIC value has been reported for CCC1OC(=O)CC(O)C(C)C(OC2OC(C)C(OC3CC(C)(O)C(O)C(C)O3)C(N(C)C)C2O)C(CCCl)CC(C)C(=O)C=CC(C)=CC1COC1OC(C)C(O)C(OC)C1OC (centres unmarked) ?
Reply | 2

Ask | Which measured MIC value corresponds to CCC1OC(=O)CC(O)C(C)C(OC2OC(C)C(O)C(N(C)C)C2O)C(CCOCCc2ccccc2)CC(C)C(=O)C=CC(C)=CC1COC1OC(C)C(O)C(OC)C1OC (centres unmarked) ?
Reply | 0.5

Ask | Need MIC of CCC1OC(=O)CC(O)C(C)C(OC2OC(C)C(OC3CC(C)(O)C(O)C(C)O3)C(N(C)C)C2O)C(CCOc2ccc(-c3ccccc3)cc2)CC(C)C(=O)C=CC(C)=CC1COC1OC(C)C(O)C(OC)C1OC (centres unmarked) , thanks.
Reply | 2

----------
System: Staphylococcus aureus X1.1
Test: MIC, standard agar-dilution assay, Staphylococcus aureus X1.1
Format: cell-based
Settings: Staphylococcus aureus, X1.1
OBSERVED PROPERTY: MIC
Please give the number followed by its unit.

Ask | # get_value(readout= MIC, system= Staphylococcus aureus X1.1) for CCC1OC(=O)CC(O)C(C)C(OC2OC(C)C(O)C(N(C)C)C2O)C(CCOc2ccc(OC)cc2)CC(C)C(=O)C=CC(C)=CC1COC1OC(C)C(O)C(OC)C1OC (stereo not shown) [Compound 35, 20-DH-20-O-(p-Methoxyphenyl)desmycosin]
Reply | 0.25 µg/mL

Ask | Look up MIC with Staphylococcus aureus X1.1 for this molecule: CCC1OC(=O)CC(O)C(C)C(OC2OC(C)C(O)C(N(C)C)C2O)C(CCSc2ccccc2)CC(C)C(=O)C=CC(C)=CC1COC1OC(C)C(O)C(OC)C1OC (stereo not shown) [Compound 23, 20-DH-DO-20-(phenylthio)desmycosin]
Reply | 0.25 µg/mL

Ask | What MIC appears in the records for this molecule with Staphylococcus aureus X1.1? CCC1OC(=O)CC(O)C(C)C(OC2OC(C)C(OC3CC(C)(O)C(O)C(C)O3)C(N(C)C)C2O)C(CCF)CC(C)C(=O)C=CC(C)=CC1COC1OC(C)C(O)C(OC)C1OC (stereo not shown) [Compound 8, 20-DH-DO-20-Fluoro-tylosin]
Reply | 1 µg/mL

Ask | Reported MIC for Staphylococcus aureus X1.1, given CCC1OC(=O)CC(O)C(C)C(OC2OC(C)C(OC3CC(C)(O)C(O)C(C)O3)C(N(C)C)C2O)C(CCOc2ccc([N+](=O)[O-])cc2)CC(C)C(=O)C=CC(C)=CC1COC1OC(C)C(O)C(OC)C1OC (stereo not shown) [Compound 12, 20-DH-20-O-(p-Nitrophenyl)tylosin] ?
Reply | 1 µg/mL
